Test system: Rattus norvegicus
Procedure Summary: AUC in Sprague-Dawley rat at 5 mg/kg, iv
Assay type: ADME, organism-based, Plasma
Design: dose 5 mg/kg, route intravenous
Assay Setup: in vivo
Entries whose AUC is below 1000 ng·h/mL take Condition met; entries at or above 1000 ng·h/mL take Condition not met.

CP(C)(=O)c1cccc(C[C@H](NC(=O)c2c(Cl)cc3c(c2Cl)CCN(C(=O)c2ccc4ccoc4c2)C3)C(=O)O)c1 ... Condition not met

Input: Confirm or reject: AUC of NS(=O)(=O)c1cccc(C[C@H](NC(=O)c2c(Cl)cc3c(c2Cl)CCN(C(=O)c2ccc4ccoc4c2)C3)C(=O)O)c1 lies strictly below 1000 ng·h/mL
Output: Condition not met

Input: Again, but for CS(=O)(=O)c1cccc(C[C@H](NC(=O)c2c(Cl)cc3c(c2Cl)CCN(C(=O)c2ccc4ccoc4c2)C3)C(=O)O)c1
Output: Condition met

Input: Same again, this time with CS(=O)(=O)c1cncc(C[C@H](NC(=O)c2c(Cl)cc3c(c2Cl)CCN(C(=O)c2ccc4ccoc4c2)C3)C(=O)O)c1
Output: Condition not met

Input: Now try CS(=O)(=O)c1ccc(C[C@H](NC(=O)c2c(Cl)cc3c(c2Cl)CCN(C(=O)c2ccc(Cl)cc2)C3)C(=O)O)o1 .
Output: Condition not met

Input: Further, for CS(=O)(=O)c1ccc(C[C@H](NC(=O)c2c(Cl)cc3c(c2Cl)CCN(C(=O)c2ccc4ccoc4c2)C3)C(=O)O)o1 ?
Output: Condition not met

Input: Subsequent entry: CS(=O)(=O)c1cc(F)cc(C[C@H](NC(=O)c2c(Cl)cc3c(c2Cl)CCN(C(=O)c2ccc4ccoc4c2)C3)C(=O)O)c1
Output: Condition not met

Input: Would you kindly repeat that for C[S+]([O-])c1cncc(CC(NC(=O)c2c(Cl)cc3c(c2Cl)CCN(C(=O)c2ccc4ccoc4c2)C3)C(=O)O)c1 (racemic) ?
Output: Condition met

src = ChEMBL document CHEMBL2046303
